- ASSAY TARGET: Kallikrein-14 (Homo sapiens)
- Sequence (Q9P0G3 17-267): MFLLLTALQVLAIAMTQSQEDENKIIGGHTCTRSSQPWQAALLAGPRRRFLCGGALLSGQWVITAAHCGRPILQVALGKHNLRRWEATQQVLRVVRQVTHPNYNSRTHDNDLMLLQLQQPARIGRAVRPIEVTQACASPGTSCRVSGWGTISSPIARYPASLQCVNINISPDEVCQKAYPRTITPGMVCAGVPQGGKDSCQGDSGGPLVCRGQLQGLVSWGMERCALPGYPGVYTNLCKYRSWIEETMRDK
- MEASUREMENT DESCRIPTION: Inhibition of recombinant C-terminal 10His-tagged human KLK14 (Gln19 to Met248 residues) expressed in mouse NS0 cells using BOC-VPR-AMC as substrate after 40 mins by fluorescence intensity assay
ENDPOINT LABEL: pIC50
pIC50 here: minus log base 10 of the concentration, concentration in moles per litre.

pIC50 reported for this compound `N=C(N)c1ccc(NCc2nc(-c3ccccc3)c[nH]2)cc1OCc1cccnc1` : 5.40

---

- MEASUREMENT DESCRIPTION: Half life in pH 8 buffer at 0.05 mg/ml under H2O2-induced oxidative condition over 24 hrs
- Type: physicochemical
- DETAILS: buffer with H2O2, pH 8
ENDPOINT LABEL: half-life at 0.05 mg/ml (h)
Just the number please, in h, no unit attached.

| RECORD SMILES | half-life at 0.05 mg/ml (h) |
| --- | --- |
| N=C(N)c1ccc(NCc2nc(-c3ccccc3)c[nH]2)cc1OCC(=O)NCC1CC1 | 14 |

Then there is this compound:
half-life at 0.05 mg/ml reported for this compound `N=C(N)c1ccc(NCc2nc(-c3ccccc3)c[nH]2)cc1OCc1cccnc1` : 10.1

---

- ASSAY TARGET: Suppressor of tumorigenicity 14 protein (Homo sapiens, UniProt Q9Y5Y6)
- Sequence (Q9Y5Y6 whole entry): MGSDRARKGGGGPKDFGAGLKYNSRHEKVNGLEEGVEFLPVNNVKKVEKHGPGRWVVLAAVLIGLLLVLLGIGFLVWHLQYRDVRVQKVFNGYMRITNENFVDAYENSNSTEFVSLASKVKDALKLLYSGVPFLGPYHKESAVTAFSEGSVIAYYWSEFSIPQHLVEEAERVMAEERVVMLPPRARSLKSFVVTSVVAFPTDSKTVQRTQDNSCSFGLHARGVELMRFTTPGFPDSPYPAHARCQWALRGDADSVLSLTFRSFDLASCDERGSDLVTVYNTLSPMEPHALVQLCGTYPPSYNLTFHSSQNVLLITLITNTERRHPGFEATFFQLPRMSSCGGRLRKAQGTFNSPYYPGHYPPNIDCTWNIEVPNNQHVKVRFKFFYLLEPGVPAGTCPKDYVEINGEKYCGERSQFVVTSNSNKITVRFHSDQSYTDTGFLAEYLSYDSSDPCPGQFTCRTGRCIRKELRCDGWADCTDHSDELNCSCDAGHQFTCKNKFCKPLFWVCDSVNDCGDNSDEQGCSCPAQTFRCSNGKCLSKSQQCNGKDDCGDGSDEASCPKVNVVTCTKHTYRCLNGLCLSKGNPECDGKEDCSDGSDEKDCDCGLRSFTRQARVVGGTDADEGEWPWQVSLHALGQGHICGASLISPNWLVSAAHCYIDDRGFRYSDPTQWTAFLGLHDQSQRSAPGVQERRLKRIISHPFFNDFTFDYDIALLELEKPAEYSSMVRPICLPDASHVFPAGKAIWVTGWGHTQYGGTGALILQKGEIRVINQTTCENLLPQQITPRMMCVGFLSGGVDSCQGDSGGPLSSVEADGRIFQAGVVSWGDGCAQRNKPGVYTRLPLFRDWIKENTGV
- MEASUREMENT DESCRIPTION: Inhibition of recombinant human N-terminal met-His6-tagged matriptase catalytic domain (Gly596 to Val855 residues) expressed in Escherichia coli using Boc-QAR-AMC as substrate after 40 mins by fluorescence intensity assay
ENDPOINT LABEL: pIC50
pIC50 here: minus log base 10 of the concentration, concentration in moles per litre.

pIC50 reported for this molecule `N=C(N)c1ccc(NCc2nc(-c3ccccc3)c[nH]2)cc1OCc1cccnc1` : 4.60

---

- ASSAY TARGET: UniProt P06870
- MEASUREMENT DESCRIPTION: Inhibition of recombinant bovine enterokinase activated N-terminal His-tagged recombinant human KLK1 (19 to 262 residues) expressed in baculovirus infected Sf9 insect cells using 3',6'-bis(prolylphenylalanylarginylamino)3H-spiro(2-benzofuran-1,9'-xanthen)-3-one;TFA as substrate measured at 30 secs interval for 5 mins by fluorescence intensity assay
Entries and their measured IC50 follow.

| RECORD SMILES | IC50 |
| --- | --- |
| N=C(N)c1ccc(NCc2nc3ccccc3[nH]2)cc1 | 39.8 µM |
| N=C(N)c1ccc(NCc2nc(-c3ccccc3)c[nH]2)cc1OCC(N)=O | > 50.1 µM |
| N=C(N)c1ccc(NCc2nc(-c3ccccc3)c[nH]2)cc1OCC(=O)NC1CC1 | 15.8 µM |
| N=C(N)c1ccc(NCc2nc(-c3ccccc3)c[nH]2)cc1OCc1ncccn1 | 39.8 µM |

Then there is this molecule:
IC50 reported for this molecule `N=C(N)c1ccc(NCc2nc(-c3ccccc3)c[nH]2)cc1OCc1ccccn1` : 20 µM

---

- ASSAY TARGET: Kallikrein-1 (Homo sapiens)
- MEASUREMENT DESCRIPTION: Inhibition of recombinant bovine enterokinase activated N-terminal His-tagged recombinant human KLK1 (19 to 262 residues) expressed in baculovirus infected Sf9 insect cells using 3',6'-bis(prolylphenylalanylarginylamino)3H-spiro(2-benzofuran-1,9'-xanthen)-3-one;TFA as substrate measured at 30 secs interval for 5 mins by fluorescence intensity assay
ENDPOINT LABEL: pIC50
pIC50 here: minus log base 10 of the concentration, concentration in moles per litre.

Below: 2 molecules and their reported pIC50.
| RECORD SMILES | ENDPOINT LABEL | NUMBER |
| --- | --- | --- |
| CN(C)CCOc1cc(NCc2nc(-c3ccccc3)c[nH]2)ccc1C(=N)N | pIC50 | 4.10 |
| N=C(N)c1ccc(NCc2nc(-c3ccccc3)c[nH]2)cc1OCc1ccccc1 | pIC50 | 4.60 |

Then there is this molecule:
# lookup: `CC(C)COc1cc(NCc2nc(-c3ccccc3)c[nH]2)ccc1C(=N)N` on Kallikrein-1 (Homo sapiens), pIC50 = 4.10

---

- ASSAY TARGET: Kallikrein-7 (Homo sapiens, UniProt P49862)
- Sequence (P49862 whole entry): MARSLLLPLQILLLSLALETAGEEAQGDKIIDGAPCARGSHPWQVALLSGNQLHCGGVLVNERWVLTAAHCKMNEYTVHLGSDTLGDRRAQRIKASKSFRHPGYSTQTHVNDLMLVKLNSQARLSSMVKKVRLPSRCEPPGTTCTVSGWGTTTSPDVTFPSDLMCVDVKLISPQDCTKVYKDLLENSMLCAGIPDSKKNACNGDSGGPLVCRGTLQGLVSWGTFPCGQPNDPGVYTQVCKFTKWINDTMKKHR
- MEASUREMENT DESCRIPTION: Inhibition of recombinant C-terminal 10His-tagged human KLK7 (Glu23 to His252 residues) expressed in mouse NS0 cells using 5-FAM-E-A-L-Y-L-V-S-G-C as substrate after 40 mins by fluorescence intensity assay
ENDPOINT LABEL: IC50

# lookup: `N=C(N)c1ccc(NCc2nc(-c3ccccc3)c[nH]2)cc1OCc1cccnc1` on Kallikrein-7 (Homo sapiens, UniProt P49862), IC50 = > 100 µM

---

Entries and their measured pIC50 follow.
- ASSAY TARGET: Kallikrein-1 (Homo sapiens, UniProt P06870)
- Sequence (P06870 whole entry, the tested form may be a part): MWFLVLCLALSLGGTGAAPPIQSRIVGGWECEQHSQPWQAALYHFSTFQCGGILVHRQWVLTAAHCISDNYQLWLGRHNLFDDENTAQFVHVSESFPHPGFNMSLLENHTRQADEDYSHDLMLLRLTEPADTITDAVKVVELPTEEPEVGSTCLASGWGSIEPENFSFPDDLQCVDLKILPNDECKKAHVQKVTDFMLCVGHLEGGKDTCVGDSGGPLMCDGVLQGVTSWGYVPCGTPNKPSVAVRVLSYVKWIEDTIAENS
- MEASUREMENT DESCRIPTION: Inhibition of recombinant bovine enterokinase activated N-terminal His-tagged recombinant human KLK1 (19 to 262 residues) expressed in baculovirus infected Sf9 insect cells using 3',6'-bis(prolylphenylalanylarginylamino)3H-spiro(2-benzofuran-1,9'-xanthen)-3-one;TFA as substrate measured at 30 secs interval for 5 mins by fluorescence intensity assay
pIC50 here: minus log base 10 of the concentration, concentration in moles per litre.

Below: 5 compounds and their reported pIC50.
| RECORD SMILES | NUMBER |
| --- | --- |
| CCOc1cc(NCc2nc(-c3ccccc3)c[nH]2)ccc1C(=N)N | 5.20 |
| N=C(N)c1ccc(NCc2nc(-c3ccccc3)c[nH]2)cc1 | 4.60 |
| N=C(N)c1ccc(NCc2nc(-c3ccccc3)c[nH]2)cc1OCCC1CC1 | 4.30 |
| N=C(N)c1ccc(NCc2nc(-c3ccccc3)c[nH]2)cc1OCC1CC1 | 4.30 |
| N=C(N)c1ccc(NCc2nc(-c3ccccc3)c[nH]2)cc1OCCO | 4.10 |

# lookup: `Cn1c(CNc2ccc(C(=N)N)cc2)nc2ccccc21` on Kallikrein-1 (Homo sapiens, UniProt P06870), pIC50 = 5.20

# lookup: `N=C(N)c1ccc(NCc2nc3cc(Cl)ccc3[nH]2)cc1` on Kallikrein-1 (Homo sapiens, UniProt P06870), pIC50 = 5.70

# lookup: `Cn1ccnc1CNc1ccc(C(=N)N)cc1` on Kallikrein-1 (Homo sapiens, UniProt P06870), pIC50 = 3.40

---

- ASSAY TARGET: UniProt Q9Y337
- Sequence (Q9Y337 whole entry): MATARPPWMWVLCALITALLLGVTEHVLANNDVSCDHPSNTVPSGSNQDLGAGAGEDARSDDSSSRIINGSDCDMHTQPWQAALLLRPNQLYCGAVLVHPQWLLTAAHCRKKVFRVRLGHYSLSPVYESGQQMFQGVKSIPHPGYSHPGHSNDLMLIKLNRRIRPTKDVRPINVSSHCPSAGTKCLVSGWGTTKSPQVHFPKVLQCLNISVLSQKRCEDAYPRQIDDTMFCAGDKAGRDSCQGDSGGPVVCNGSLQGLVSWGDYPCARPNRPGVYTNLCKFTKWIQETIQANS
- MEASUREMENT DESCRIPTION: Inhibition of recombinant 6His-Q-FLAG tagged human KLK5 expressed in baculovirus infected Sf9 insect cells using (Tos-Gly-Pro-Arg)2[R110].2TFA as substrate measured at 30 secs interval for 5 mins by fluorescence intensity assay
- DETAILS: read-out: pIC50 (converted)
Entries and their measured IC50 follow.
Give me the value, and tack the unit on after it.

| RECORD SMILES | ENDPOINT LABEL | RESULT |
| --- | --- | --- |
| N=C(N)c1ccc(NCc2nc(-c3ccccc3)c[nH]2)cc1OCc1ncccn1 | IC50 | 79.4 nM |
| N=C(N)c1ccc(NCc2nc(-c3ccccc3)c[nH]2)cc1OCC1CC1 | IC50 | 794 nM |
| N=C(N)c1ccc(NCc2nc(-c3ccccc3)c[nH]2)cc1 | IC50 | 6310 nM |
| N=C(N)c1ccc(NCc2nc(-c3ccccc3)c[nH]2)cc1OCc1ccc(Cl)cc1 | IC50 | 63.1 nM |

Then there is this compound:
IC50 reported for this compound `N=C(N)c1ccc(NCc2nc(-c3ccccc3)c[nH]2)cc1OCC(N)=O` : 794 nM
